experiment: Permeability across Caco-2 cell monolayers; assay type: in vitro ADME; settings: human, Caco-2, ER (efflux ratio, Papp BA/Papp AB), Caco-2 cell monolayers, no inhibitors
quantity: efflux ratio
// no unit, no text: just the number

In the examples that follow, each entry is paired with its recorded efflux ratio.
Inquiry: Quick one: efflux ratio for C=C[C@@H]1C[C@]1(NC(=O)[C@@H]1C[C@@H](Oc2ncc(OC)c3ccc(Cl)cc23)CN1C(=O)[C@@H](NC(=O)OC(C)(C)C)C(C)(C)C)C(=O)NS(=O)(=O)C1CC1 ?
Reply text: 270

Inquiry: Likewise for COC(=O)N[C@H](C(=O)N[C@@H](Cc1ccccc1)[C@@H](O)CN(Cc1ccc(-c2ccccn2)cc1)NC(=O)[C@@H](NC(=O)OC)C(C)(C)C)C(C)(C)C ?
Reply text: 40

Inquiry: Likewise for COc1ccc2c(O[C@@H]3C[C@H]4C(=O)N[C@]5(C(=O)NS(=O)(=O)C6CC6)C[C@H]5/C=C\CCCCN(C)C(=O)[C@@H]4C3)cc(-c3nc(C(C)C)cs3)nc2c1C ?
Reply text: 330

***
Inquiry: Quick one: efflux ratio for COC(=O)N[C@H](C(=O)N1CCC[C@H]1c1nc(-c2ccc(-c3ccc(-c4c[nH]c([C@@H]5CCCN5C(=O)[C@@H](NC(=O)OC)C(C)C)n4)cc3)cc2)c[nH]1)C(C)C ?
Reply text: 38

---

assay: LogD7.4, miniaturized shake-flask procedure; type: physicochemical; details: pH 7.4
# logD annotations
// no unit, no text: just the number

In the examples that follow, each entry is paired with its recorded logD.
Inquiry: Quick one: logD for C=C[C@@H]1C[C@]1(NC(=O)[C@@H]1C[C@@H](Oc2ncc(OC)c3ccc(Cl)cc23)CN1C(=O)[C@@H](NC(=O)OC(C)(C)C)C(C)(C)C)C(=O)NS(=O)(=O)C1CC1 [Asunaprevir] ?
Reply text: 3.1

Inquiry: Likewise for COc1ccc2c(O[C@@H]3C[C@H]4C(=O)N[C@]5(C(=O)NS(=O)(=O)C6CC6)C[C@H]5/C=C\CCCCN(C)C(=O)[C@@H]4C3)cc(-c3nc(C(C)C)cs3)nc2c1C [Simeprevir] ?
Reply text: 3.7

***
Inquiry: Quick one: logD for COC(=O)N[C@H](C(=O)N1CCC[C@H]1c1nc(-c2ccc(-c3ccc(-c4c[nH]c([C@@H]5CCCN5C(=O)[C@@H](NC(=O)OC)C(C)C)n4)cc3)cc2)c[nH]1)C(C)C [Daclatasvir] ?
Reply text: 3.9
